Taken from patent US12522597B2.

# System: MDR1-MDCK cell monolayers
# Procedure details: MDCK-MDR1 permeability assay (BBB penetration potential)
# Format: in vitro ADME
# Assay context: dog, MDCK-MDR1, 120 min, 5 μM, pH 7.4
Recorded metric: MDCK-MDR1: % Recov A-B (%)
Record the value in %, omitting the unit from your answer.

Solved cases (8 shown):
>>> value_measured("Cn1cc(-c2ccc(-c3ccc(O[C@@H]4C[C@@]5(C)CC[C@](C)(N5)[C@@H]4F)nn3)c(O)c2)cn1 (single isomer, unassigned)")
78
>>> value_measured("Oc1cc(-n2ccc(F)n2)ccc1-c1ccc(O[C@H]2C[C@@H]3CCC[C@@H](N3)[C@H]2F)nn1 (single isomer, unassigned)")
43
>>> value_measured("Oc1cc(-c2cnn3ccccc23)ccc1-c1ccc(O[C@@H]2C[C@H]3CCC[C@H](N3)[C@@H]2F)nn1 (single isomer, unassigned)")
30
>>> value_measured("Oc1cc(-n2ncc3ccccc32)ccc1-c1ccc(O[C@@H]2C[C@H]3CC[C@H](N3)[C@@H]2F)nn1 (single isomer, unassigned)")
22
>>> value_measured("COc1cc(-c2ccc(-c3ccc(O[C@@H]4C[C@@]5(C)CC[C@](C)(N5)[C@@H]4F)nn3)c(O)c2)cnn1 (single isomer, unassigned)")
77
>>> value_measured("Cc1cncc(-c2ccc(-c3ccc(O[C@H]4C[C@@H]5CCC[C@@H](N5)[C@H]4F)nn3)c(O)c2)c1 (single isomer, unassigned)")
55
>>> value_measured("CN(C)C(=O)c1cc2cc(O)c(-c3ccc(O[C@@H]4C[C@@]5(C)CCC[C@](C)(N5)[C@@H]4F)nn3)cc2o1 (single isomer, unassigned)")
90
>>> value_measured("Cc1ccc(-c2ccc(-c3ccc(O[C@H]4C[C@@H]5CCC[C@@H](N5)[C@H]4F)nn3)c(O)c2)cn1 (single isomer, unassigned)")
59

Reported MDCK-MDR1: % Recov A-B ( Oc1cc2nccnc2cc1-c1ccc(O[C@@H]2C[C@H]3CCC[C@H](N3)[C@@H]2F)nn1 (single isomer, unassigned) ) = 95

// recorded MDCK-MDR1: % Recov A-B for Cn1cc(-c2ccc(-c3ccc(O[C@H]4C[C@@H]5CCC[C@@H](N5)[C@H]4F)nn3)c(O)c2)oc1=O (single isomer, unassigned) : 74

MDCK-MDR1: % Recov A-B measured on Oc1cc(-n2cccn2)ccc1-c1ccc(O[C@@H]2C[C@H]3CC[C@H](N3)[C@@H]2F)nn1 (single isomer, unassigned) = 77

So for Cc1nocc1-c1ccc(-c2ccc(O[C@H]3C[C@@H]4CCC[C@@H](N4)[C@H]3F)nn2)c(O)c1 (single isomer, unassigned) [72-ENT2] , the logged MDCK-MDR1: % Recov A-B turned out to be 64
